# assayMethodText: BSK_3C_TissueFactor: BioMAP Diversity Plus: 3C Assay for Tissue Factor Biomarker Activity (AID 2282997)
# conditionInfo: BioMAP 3C HUVEC, tissue factor biomarker readout; actives raise or lower the signal
Active and inactive are the calls of the source. Rule for the calls: active = hit-call score of the fitted dose curve at least 0.9, where 1 is the maximum; inactive = score below 0.9.
parameterMeasured: AC50

INSERT INTO measurements (compound, testvalue) VALUES
  ('O=C(NO)c1ccccc1', 'inactive'),
  ('COCN(COC)c1nc(N(COC)COC)nc(N(COC)COC)n1', 'inactive'),
  ('OCCN1CN(CCO)CN(CCO)C1', '20 µM (active)'),
  ('Oc1ccc(Cc2ccccc2O)cc1', 'inactive'),
  ('C=CC(=C)CC/C=C(\C)CCC=C(C)C', 'inactive'),
  ('O=P(O)(O)CCC(F)(F)C(F)(F)C(F)(F)C(F)(F)C(F)(F)C(F)(F)F', 'inactive'),
  ('Cc1ccc(N=Nc2c(O)ccc3ccccc23)c(C)c1', '1.97 µM (active)'),
  ('O=C1OC2(c3ccccc31)c1cc(I)c(O)c(I)c1Oc1c2cc(I)c(O)c1I', '12 µM (active)'),
  ('COc1cccc(O)c1', 'inactive'),
  ('CN(C)c1ccc(C(=C2C=CC(=[N+](C)C)C=C2)c2ccccc2)cc1', '0.0152 µM (active)'),
  ('CCCCCCCCCCCC', 'inactive'),
  ('CCOC(=O)CN[C@@H](C(=O)N1CC[C@H]1C(=O)NCc1ccc(/C(N)=N/O)cc1)C1CCCCC1', 'inactive'),
  ('CCCCC(CC)C(=O)O (stereo not given)', 'inactive'),
  ('COC1=CC(=O)C[C@@H](C)[C@]12Oc1c(Cl)c(OC)cc(OC)c1C2=O', 'inactive'),
  ('CCCCCc1ccc(O)cc1', '12 µM (active)'),
  ('C=CC(C)(CCC=C(C)C)OC(C)=O (stereo not given)', '27.8 µM (active)'),
  ('CCCCCCCCCCCCOS(=O)(=O)O', 'inactive'),
  ('CN(C)CCOC(c1ccccc1)c1ccccc1', 'inactive'),
  ('COc1cc(OC)nc(NC(=O)NS(=O)(=O)Nc2ccccc2C(=O)N(C)C)n1', 'inactive'),
  ('CC[N+](CC)(CC)Cc1ccccc1', 'inactive'),
  ('OCC(CO)(CBr)CBr', 'inactive'),
  ('O=S(=O)(O)C(F)(F)C(F)(F)C(F)(F)C(F)(F)C(F)(F)C(F)(F)C(F)(F)C(F)(F)C(F)(F)C(F)(F)F', 'inactive'),
  ('CCC(C)c1ccccc1O (stereo not given)', 'inactive'),
  ('NC(=NCCCCCCN=C(N)/N=C(\N)Nc1ccc(Cl)cc1)/N=C(\N)Nc1ccc(Cl)cc1', '4.88 µM (active)'),
  ('O=C1c2ccc(O)c(O)c2C(=O)c2c(O)ccc(O)c21', 'inactive'),
  ('CCCCCCCCCCCCCCCCCC[N+](C)(C)Cc1ccccc1', '1.17 µM (active)'),
  ('CC1=NN(c2ccccc2)C(=O)C1', '4.46 µM (active)'),
  ('O=C(O)CCC(F)(F)C(F)(F)C(F)(F)C(F)(F)C(F)(F)C(F)(F)F', 'inactive'),
  ('O=C1NS(=O)(=O)c2ccccc21', 'inactive'),
  ('CC(C)(C)c1ccc(O)c(O)c1', '3.97 µM (active)'),
  ('OCC(F)(F)C(F)(F)C(F)(F)C(F)(F)C(F)(F)C(F)(F)C(F)(F)C(F)(F)C(F)(F)C(F)(F)C(F)(F)F', 'inactive'),
  ('Oc1cc2ccccc2cc1O', 'inactive'),
  ('Cc1cccc2c1ccc1ccccc12', '0.0495 µM (active)'),
  ('CS(=O)(=O)c1ccc([C@@H](CC2CCCC2)C(=O)Nc2cnccn2)cc1Cl', 'inactive'),
  ('N=C(N)c1ccc(OCCCCCOc2ccc(C(=N)N)cc2)cc1', 'inactive');

====

# Read-out: CFLAR gene, CFLAR (gene 8837)
# assayMethodText: LTEA_HepaRG_CFLAR: Life Technologies and Expression Analysis (LTEA) Assay for CFLAR gene using HepaRG (AID 2283455)
# conditionInfo: mRNA level, 48 h; actives raise or lower the signal
Activity calls are given as the source filed them. The calls were made as follows: active = hit-call score of the fitted dose curve at least 0.9, where 1 is the maximum; inactive = score below 0.9.
Possible outcomes: active, inactive

INSERT INTO results (molecule, group) VALUES
  ('OCC(CO)(CBr)CBr', 'inactive'),
  ('CN(C)CCOC(c1ccccc1)c1ccccc1', 'inactive'),
  ('N=C(N)c1ccc(OCCCCCOc2ccc(C(=N)N)cc2)cc1', 'active'),
  ('Cc1[nH]nc2c1N=C(c1ccccc1Cl)c1cc([N+](=O)[O-])ccc1N2', 'active'),
  ('CCCCC(CC)C(=O)O (stereo not drawn)', 'inactive'),
  ('CCCCCCCCCCCCCCC', 'inactive'),
  ('O=C(CCCN1CCC(O)(c2ccc(Cl)cc2)CC1)c1ccc(F)cc1', 'inactive'),
  ('CCCCC=O', 'inactive'),
  ('O=C1NS(=O)(=O)c2ccccc21', 'inactive'),
  ('CN(Cc1cnc2nc(N)nc(N)c2n1)c1ccc(C(=O)N[C@@H](CCC(=O)O)C(=O)O)cc1', 'inactive'),
  ('CCCCCCCCCCCCOS(=O)(=O)O', 'inactive'),
  ('CCCCc1oc2ccccc2c1C(=O)c1cc(I)c(OCCN(CC)CC)c(I)c1', 'active'),
  ('CCC(C)c1ccccc1O (stereo not drawn)', 'inactive');

====

# Read-out: Tumor necrosis factor receptor 1 (TNFRSF1A), TNFRSF1A (gene 7132)
# assayMethodText: LTEA_HepaRG_TNFRSF1A: Life Technologies and Expression Analysis (LTEA) Assay for Tumor necrosis factor receptor 1 (TNFRSF1A) using HepaRG (AID 2283535)
# conditionInfo: mRNA level, 48 h; actives raise or lower the signal
Active and inactive are the calls of the source. Rule for the calls: active = hit-call score of the fitted dose curve at least 0.9, where 1 is the maximum; inactive = score below 0.9.
Possible outcomes: 1 = active, -1 = inactive

INSERT INTO results (compound, group) VALUES
  ('O=C(CCCN1CCC(O)(c2ccc(Cl)cc2)CC1)c1ccc(F)cc1', 1),
  ('CS(=O)(=O)c1ccc([C@@H](CC2CCCC2)C(=O)Nc2cnccn2)cc1Cl', -1),
  ('CCCCC(CC)C(=O)O (stereo not drawn)', -1),
  ('O=C(c1ccccc1)c1ccccc1', -1),
  ('N=C(N)c1ccc(OCCCCCOc2ccc(C(=N)N)cc2)cc1', 1),
  ('Cc1[nH]nc2c1N=C(c1ccccc1Cl)c1cc([N+](=O)[O-])ccc1N2', 1),
  ('O=C1NS(=O)(=O)c2ccccc21', -1),
  ('CN(Cc1cnc2nc(N)nc(N)c2n1)c1ccc(C(=O)N[C@@H](CCC(=O)O)C(=O)O)cc1', -1);

====

# assayMethodText: BSK_LPS_SRB: Viability Assessment in the BioMAP Diversity Plus: LPS Assay (AID 2283079);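 note: total protein by sulforhodamine B absorbance as a cytotoxicity measure; measured one day after compound addition; fitted in both directions against DMSO so loss or gain of signal counts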
# conditionInfo: primary human HUVEC with PBMC
The source made the active and inactive calls. The calls were made as follows: active = hit-call score of the fitted dose curve at least 0.9, where 1 is the maximum; inactive = score below 0.9.
Possible outcomes: active, inactive

INSERT INTO results (compound, group) VALUES
  ('C[C@]12CC[C@@H]3c4ccc(O)cc4CC[C@H]3[C@@H]1C[C@@H](O)[C@@H]2O', 'inactive'),
  ('CC(C)(C)c1ccc(O)c(O)c1', 'active'),
  ('Cc1ccc(C(=O)c2ccccc2)cc1', 'inactive'),
  ('CN(Cc1cnc2nc(N)nc(N)c2n1)c1ccc(C(=O)N[C@@H](CCC(=O)O)C(=O)O)cc1', 'inactive'),
  ('O=S(=O)(O)C(F)(F)C(F)(F)C(F)(F)C(F)(F)C(F)(F)C(F)(F)C(F)(F)C(F)(F)C(F)(F)C(F)(F)F', 'inactive'),
  ('C=COC(=O)C(C)(C)CCCCCC', 'active'),
  ('CCCCCCCCCCCC', 'inactive'),
  ('CN(C)c1ccc(C(=C2C=CC(=[N+](C)C)C=C2)c2ccccc2)cc1', 'active'),
  ('Cc1ccc(N=Nc2c(O)ccc3ccccc23)c(C)c1', 'inactive'),
  ('CN(C)CCOC(c1ccccc1)c1ccccc1', 'inactive'),
  ('Oc1ccc(Cc2ccccc2O)cc1', 'inactive'),
  ('OCC(CO)(CBr)CBr', 'inactive'),
  ('CCCCCCCCCCCCCCC', 'inactive'),
  ('C=CC(=C)CC/C=C(\C)CCC=C(C)C', 'inactive'),
  ('CCC(C)c1ccccc1O (stereo unspecified)', 'inactive'),
  ('CCCCC(CC)C(=O)O (stereo unspecified)', 'inactive'),
  ('CCCCC=O', 'inactive'),
  ('COc1cc(OC)nc(NC(=O)NS(=O)(=O)Nc2ccccc2C(=O)N(C)C)n1', 'inactive'),
  ('CC1=NN(c2ccccc2)C(=O)C1', 'inactive'),
  ('N=C(N)c1ccc(OCCCCCOc2ccc(C(=N)N)cc2)cc1', 'inactive'),
  ('O=C1OC2(c3ccccc31)c1cc(I)c(O)c(I)c1Oc1c2cc(I)c(O)c1I', 'inactive'),
  ('COCN(COC)c1nc(N(COC)COC)nc(N(COC)COC)n1', 'inactive'),
  ('O=C(CCCN1CCC(O)(c2ccc(Cl)cc2)CC1)c1ccc(F)cc1', 'inactive'),
  ('Cc1[nH]nc2c1N=C(c1ccccc1Cl)c1cc([N+](=O)[O-])ccc1N2', 'active'),
  ('OCCN1CN(CCO)CN(CCO)C1', 'inactive'),
  ('COC1=CC(=O)C[C@@H](C)[C@]12Oc1c(Cl)c(OC)cc(OC)c1C2=O', 'inactive');

Each recorded value in this set is attributed to PubChem BioAssay (EPA / NIEHS).
